# target entity: T1, human CLDN9 (human, UniProt O95484 1-217)
# T1 construct: It was expressed on 293T cells from human CLDN9/pCMV6-Entry bought from OriGene; also called claudin-9
# T1 sequence: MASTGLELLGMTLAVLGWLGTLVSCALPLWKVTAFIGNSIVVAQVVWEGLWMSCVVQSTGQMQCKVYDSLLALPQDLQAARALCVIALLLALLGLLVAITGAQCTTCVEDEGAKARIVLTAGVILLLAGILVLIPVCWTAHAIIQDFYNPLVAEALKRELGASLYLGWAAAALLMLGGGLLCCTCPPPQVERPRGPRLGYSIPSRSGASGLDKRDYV
# procedure text: flow cytometry on 293T cells transiently transfected with human CLDN9
readout kind: binding result

humanized anti-CLDN6 antibody H3L3 (antibody, human IgG1, kappa, L234A L235A, V domains shown, Heavy chain hH3 with light chain hL3; Human IgG1 LALA constant region and human kappa light chain; also called H3L3 antibody) VH: EVQLVQSGAEVKKPGASVKVSCKTSGYTFTEYTMHWVRQAPGQGLEWMGGVNPNSGDTSYAQKFQGRVTLTVDKSTSTAYMELSSLRSEDTAVYYCARPGGYDVGYYAMDYWGQGTLVTVSS VL: DIQMTQSPSSLSASVGDRVTITCRASQDINNYLNWYQQKPGGAVKLLIYFTSRLHSGVPSRFSGSGSGTDYTLTISSLQPEDFATYYCQQGYPLPWTFGGGTKVEIKR = binds
